Molecular target: EPHB1 (UniProt P54762)
Sequence (P54762 whole entry, looked up): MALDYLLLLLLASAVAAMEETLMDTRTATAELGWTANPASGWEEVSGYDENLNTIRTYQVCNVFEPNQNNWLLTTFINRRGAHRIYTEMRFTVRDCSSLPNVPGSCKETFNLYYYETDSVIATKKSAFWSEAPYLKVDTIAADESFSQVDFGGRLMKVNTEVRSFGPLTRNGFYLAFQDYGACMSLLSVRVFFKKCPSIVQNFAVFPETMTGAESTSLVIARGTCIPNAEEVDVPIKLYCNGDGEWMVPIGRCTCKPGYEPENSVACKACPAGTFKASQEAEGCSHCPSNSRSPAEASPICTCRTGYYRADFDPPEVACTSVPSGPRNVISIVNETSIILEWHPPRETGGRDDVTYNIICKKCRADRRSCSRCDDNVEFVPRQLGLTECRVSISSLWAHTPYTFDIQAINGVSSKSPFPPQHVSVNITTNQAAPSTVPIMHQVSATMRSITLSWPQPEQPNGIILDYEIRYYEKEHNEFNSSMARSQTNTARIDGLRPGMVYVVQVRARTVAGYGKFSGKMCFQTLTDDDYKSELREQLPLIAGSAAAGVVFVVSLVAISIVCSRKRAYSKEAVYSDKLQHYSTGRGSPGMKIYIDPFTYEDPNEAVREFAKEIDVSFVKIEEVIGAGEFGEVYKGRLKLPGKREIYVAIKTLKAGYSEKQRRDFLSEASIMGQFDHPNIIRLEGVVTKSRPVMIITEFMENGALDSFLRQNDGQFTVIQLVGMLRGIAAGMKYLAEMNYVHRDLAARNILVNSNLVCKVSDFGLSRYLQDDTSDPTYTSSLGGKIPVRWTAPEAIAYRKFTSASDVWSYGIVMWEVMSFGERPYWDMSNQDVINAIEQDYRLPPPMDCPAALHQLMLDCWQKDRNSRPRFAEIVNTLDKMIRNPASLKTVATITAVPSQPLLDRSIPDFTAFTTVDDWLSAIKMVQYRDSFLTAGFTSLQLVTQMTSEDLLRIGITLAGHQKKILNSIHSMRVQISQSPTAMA
Test: phosphorylation enrichment, bacterial display (enrichment ratio); higher = better substrate or ligand; peptides without Tyr show the background;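 further: 11-residue human phosphosite peptides and single-mutation variants displayed on the E. coli surface, counted by deep sequencing, each peptide's frequency after selection divided by its frequency in the unselected input library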;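 further: frequency after pTyr selection over input frequency; kinase dosed for 20-30% of maximal phosphorylation in three min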
For each of the sequences below, state its phosphorylation enrichment.
No unit in the answer, only the number.

## Task Test system EPHB1 (UniProt P54762); read-out phosphorylation enrichment; what value for RRNEIYEIKVD [LGR5_Y387_H383R] ?
## Result 0.751

## Task Thanks! And VFPIDYYFPPQ [AR_Y552_L548F] ?
## Result 3.22

## Task Can you handle QRAADYYSQQM [GBP6_Y333] next?
## Result 0.933

## Task Further, for PNKAVYTKMMT [G6PD_Y401_E398K] ?
## Result 0.467

## Task One more sequence: IGKAGYTDKVV [ENO1_Y236]
## Result 0.398

## Task And what about the sequence MKGDYYRYLAE [YWHAG_Y131] ?
## Result 1.09

## Task Lookup KTDVRYRSLGG [DYSF_Y1858_H1857R]
## Result 0.333

----------
Biological target: Jak2 (UniProt O60674)
Sequence (O60674 whole entry, looked up): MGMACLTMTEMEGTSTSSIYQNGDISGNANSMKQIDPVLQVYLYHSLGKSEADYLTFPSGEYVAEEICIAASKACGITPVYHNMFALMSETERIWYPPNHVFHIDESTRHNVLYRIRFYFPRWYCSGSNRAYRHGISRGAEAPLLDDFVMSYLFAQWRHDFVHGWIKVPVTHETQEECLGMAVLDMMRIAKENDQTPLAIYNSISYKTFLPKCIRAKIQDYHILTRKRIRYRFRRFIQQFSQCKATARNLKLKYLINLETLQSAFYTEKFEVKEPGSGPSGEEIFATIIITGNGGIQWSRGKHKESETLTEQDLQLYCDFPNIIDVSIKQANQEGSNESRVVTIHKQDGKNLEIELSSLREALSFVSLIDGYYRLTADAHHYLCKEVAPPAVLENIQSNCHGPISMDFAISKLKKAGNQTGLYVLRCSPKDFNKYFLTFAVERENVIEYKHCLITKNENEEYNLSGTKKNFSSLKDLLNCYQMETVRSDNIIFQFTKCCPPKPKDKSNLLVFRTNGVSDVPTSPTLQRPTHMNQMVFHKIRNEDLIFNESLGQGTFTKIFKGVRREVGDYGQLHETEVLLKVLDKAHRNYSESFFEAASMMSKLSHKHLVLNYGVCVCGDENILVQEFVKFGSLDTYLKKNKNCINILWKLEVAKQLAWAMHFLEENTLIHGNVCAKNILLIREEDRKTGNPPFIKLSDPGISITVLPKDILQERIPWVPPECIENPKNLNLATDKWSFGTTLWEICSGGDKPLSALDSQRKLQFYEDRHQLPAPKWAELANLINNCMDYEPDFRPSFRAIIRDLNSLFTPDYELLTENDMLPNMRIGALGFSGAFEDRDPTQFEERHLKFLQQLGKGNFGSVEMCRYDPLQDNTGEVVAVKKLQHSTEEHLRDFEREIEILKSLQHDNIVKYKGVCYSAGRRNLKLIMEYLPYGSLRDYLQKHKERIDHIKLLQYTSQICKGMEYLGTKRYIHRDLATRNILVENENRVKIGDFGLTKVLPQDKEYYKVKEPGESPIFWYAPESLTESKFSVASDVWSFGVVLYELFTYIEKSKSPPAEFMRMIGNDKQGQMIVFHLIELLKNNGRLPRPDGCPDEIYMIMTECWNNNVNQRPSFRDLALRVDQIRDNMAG
Experiment: phosphorylation enrichment, bacterial display (enrichment ratio); higher = better substrate or ligand; peptides without Tyr show the background
Recorded phosphorylation enrichment split into classes group 1 = under 0.7, group 2 = from 0.7 up to 1, group 3 = 1 and over

## Task Which of the defined bands does the recorded phosphorylation enrichment of FSKDIYKRVTG [PANK2_Y405_N404I_YF] sit within?
## Result group 1

## Task Now this one: SVIKEYQIRQV [USH2A_Y3623_G3618S]
## Result group 1

## Task Please give the result for RRFLFYFSFLL [PTEN_Y177_V175L_YF] too.
## Result group 2

## Task // query: SVFNNYIQTLG [CTNND1_Y174_S171F]
## Result group 2

## Task Would you mind doing GREYIYVDPMQ [PDGFRA_Y574_H570R] as well?
## Result group 3

## Task Another sequence to check: SGIFQYNIAKF [FOXL2_Y83_I84N_YF]
## Result group 2

## Task Also need SLEKSYELPDG [ACTA1_Y242] , thanks.
## Result group 2

## Task # iterate: STQAHYRLSAF [ADAMTS9_Y100_S96T]
## Result group 1

## Task Request: LKLIQYHLIQQ [AKAP4_Y554_T557I]
## Result group 3

## Task Similarly, GGPTFYIDTNA [ACTL6A_Y69_YF] ?
## Result group 3

## Task Check QFLMKYVRSAS [ABCD1_Y337_W339R] too.
## Result group 3

## Task And the next one, QMWLKYSQSDL [SMC1A_Y714_R711W] ?
## Result group 3

## Task Repeat for the following sequence: MCDKEYFSVHN [MET_Y1234_Y1230C_YF]
## Result group 3

## Task Follow-up item: VLDCHYPEDEV [C1QBP_Y188]
## Result group 3

## Task Same read-out for EKLQKYFRQNP [EHHADH_Y682_YF] ?
## Result group 1

## Task # iterate: LGKLTYPVGFW [NTHL1_Y177_I176T]
## Result group 3

## Task Again, but for QKKEEYKMALY [F8_Y1990_R1985Q]
## Result group 3

## Task Same question for MWGSDYVQLSR [MAP3K4_Y582] please.
## Result group 3

## Task Would you mind doing NGSFRYVIISQ [LRP1B_Y1988] as well?
## Result group 2

## Task Consider next the sequence KEEEDYREENN [BMS1_Y651_K652R] in the same way.
## Result group 3

## Task Now this one: FKEIVYAVSSD [DCX_Y70_G67E]
## Result group 2

## Task // query: GRRGQYVMPSE [TTC7A_Y396_L399P]
## Result group 1

## Task Input GNHVSYYQSDG [CACNA1C_Y1757]
## Result group 1

## Task Also TTPGPHRSIYF [MPG_Y71_Y71H] ?
## Result group 1

## Task Entry SFPHEYGSQEG [RBM10_Y48_R46H_YF] please
## Result group 1

## Task Also need YDEYRYRSVIK [CFTR_Y517] , thanks.
## Result group 3

## Task Do the same for FEGHSYSACTT [MMP9_Y241_R239H] please
## Result group 3

## Task And the next one, KILTHYKRPHT [KMT2D_Y5349] ?
## Result group 1
